Read-out: matrix metalloproteinase-3 (MMP3), MMP3 (gene 4314)
Assay: LTEA_HepaRG_MMP3: Life Technologies and Expression Analysis (LTEA) Assay for matrix metalloproteinase-3 (MMP3) using HepaRG (AID 2283519)
Details: mRNA level, 48 h; actives raise or lower the signal
Protocol: LTEA_HepaRG is a cell based, multiplexed-readout assay that uses HepaRG, a human liver cell line, with measurements taken at 48 hours after chemical dosing on a 96-well plate.LTEA_HepaRG_MMP3 is one of 102 assay component(s) measured in the LTEA HepaRG cell culture assay. It is a marker of Fibrosis.Data from the assay component LTEA_HepaRG_MMP3 was analyzed into 1 endpoint. […]
Active and inactive are the calls of the source. The calls were made as follows: active = hit-call score of the fitted dose curve at least 0.9, where 1 is the maximum; inactive = score below 0.9.
API: response.call in active, inactive

compound: Nc1c(Cl)c(F)nc(OCC(=O)O)c1Cl
cat: inactive

compound: Nc1cnn(-c2ccccc2)c(=O)c1Cl
cat: inactive

compound: CN/C(=N\[N+](=O)[O-])NCc1cnc(Cl)s1
cat: inactive

compound: CC(C)=CC1C(C(=O)OCc2coc(Cc3ccccc3)c2)C1(C)C (centres undefined)
cat: inactive

compound: CC1(C)CON(Cc2ccccc2Cl)C1=O
cat: inactive

compound: CCN(CC)C(=O)C(C)Oc1cccc2ccccc12 (centres undefined)
cat: active

Fill in: this test's call for "COP(=S)(OC)Oc1ccc([N+](=O)[O-])c(C)c1" is ___
inactive

Fill in: this test's call for COCC(C)N(C(=O)CCl)c1c(C)csc1C (centres undefined) is ___
inactive

Fill in: this test's call for "O=c1n(Cl)c(=O)n(Cl)c(=O)n1Cl" is ___
inactive

###

read-out: xenobiotic metabolism (CYP1A2), CYP1A2 (gene 1544); experiment: CLD_CYP1A2_6hr: CellzDirect (CLD) Gene Expression Assay for xenobiotic metabolism (CYP1A2) at 6 hours (AID 2283663)
Results filed as inconclusive are left out. Activity calls are given as the source filed them. The calls were made as follows: active = hit-call score of the fitted dose curve at least 0.9, where 1 is the maximum; inconclusive = response in the unintended direction; inactive = score below 0.9.
API: response.call in active, inactive

compound: CCCCOCN(C(=O)CCl)c1c(CC)cccc1CC
cat: inactive

Fill in: this test's call for "CNC(=O)Oc1cccc2ccccc12" is ___
active

Fill in: this test's call for "COc1ccc(-c2ccccc2)cc1NNC(=O)OC(C)C" is ___
active

Fill in: this test's call for "CC(C)N1C(=O)N(c2ccccc2)CSC1=NC(C)(C)C" is ___
inactive

Fill in: this test's call for CCOC(=O)C(C)OC(=O)c1cc(Oc2ccc(C(F)(F)F)cc2Cl)ccc1[N+](=O)[O-] (stereo unspecified) is ___
active

Fill in: this test's call for "COP(=S)(OC)Oc1ccc([N+](=O)[O-])c(C)c1" is ___
active

Fill in: this test's call for "CS(=O)(=O)c1ccc(C(=O)C2C(=O)CCCC2=O)c([N+](=O)[O-])c1" is ___
inactive

Fill in: this test's call for "COP(=O)(OC)O/C(C)=C/C(=O)N(C)C" is ___
inactive

Fill in: this test's call for "CCN(CC)c1nc(C)cc(OP(=S)(OC)OC)n1" is ___
active

Fill in: this test's call for "CSC(=O)c1c(C(F)F)nc(C(F)(F)F)c(C(=O)SC)c1CC(C)C" is ___
inactive

Fill in: this test's call for CC1(C)C(C=C(Cl)Cl)C1C(=O)OC(C#N)c1cccc(Oc2ccccc2)c1 (stereo unspecified) is ___
active

###

experiment: CCTE_Shafer_MEA_dev_interburst_interval_mean: CCTE's Neural Network Formation Assay for Mean Interburst Interval, Shafer Lab (AID 2284046);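 also: well-mean interburst interval of bursting electrodes as AUC over four recording days; curve fitted for decrease in interburst interval relative to DMSO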
Calls of active or inactive are those of the source. How the source made its calls: active means hit-call score of the fitted dose curve at least 0.9, where 1 is the maximum; inactive means score below 0.9.
API: response.call in T (active), F (inactive)

The examples below pair each entry with its known result.
compound: C=C(C)CN(CC)c1c([N+](=O)[O-])cc(C(F)(F)F)cc1[N+](=O)[O-]
cat: T

compound: CNC(=O)Oc1cccc2ccccc12
cat: F

compound: CC1(C)C(C(=O)OC(C#N)c2cccc(Oc3ccccc3)c2)C1(C)C (stereo not given)
cat: F

compound: CCCN(CC)CC1COC2(CCC(C(C)(C)C)CC2)O1 (stereo not given)
cat: T

compound: CCSC(=O)N1CCCCCC1
cat: F

Fill in: this test's call for CC(C)(C)C(=O)C(Oc1ccc(Cl)cc1)n1cncn1 (stereo not given) is ___
F

Fill in: this test's call for "CS(=O)(=O)c1cc(C(F)(F)F)ccc1C(=O)c1cnoc1C1CC1" is ___
F

Fill in: this test's call for "COP(=S)(OC)Oc1ccc([N+](=O)[O-])c(C)c1" is ___
F

Fill in: this test's call for "COC(=O)N(C(=O)N1CO[C@@]2(C(=O)OC)Cc3cc(Cl)ccc3C2=N1)c1ccc(OC(F)(F)F)cc1" is ___
F

Fill in: this test's call for CCOC(=O)C(C)OC(=O)c1cc(Oc2ccc(C(F)(F)F)cc2Cl)ccc1[N+](=O)[O-] (stereo not given) is ___
F

###

test: BSK_SAg_Proliferation: Cell Proliferation Assessment in the BioMAP Diversity Plus: SAg Assay (AID 2283095); details: primary human HUVEC with PBMC;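 also: relative cell number as total protein by SRB absorbance in sub-confluent culture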
The source made the active and inactive calls. The calls were made as follows: active = hit-call score of the fitted dose curve at least 0.9, where 1 is the maximum; inactive = score below 0.9.
result type: AC50

Record excerpt, results attached:
compound: CCN(CC)c1nc(C)cc(OP(=S)(OC)OC)n1
reported value: 37 µM (active)

compound: COC(=O)NS(=O)(=O)c1ccc(N)cc1
reported value: inactive

compound: CC(C)Oc1cccc(NC(=O)c2ccccc2C(F)(F)F)c1
reported value: inactive

compound: CC1(C)C(C=C(Cl)Cl)C1C(=O)OC(C#N)c1cccc(Oc2ccccc2)c1 (configuration not stated)
reported value: 29.4 µM (active)

compound: CC(C)C1(C)N=C(c2ncccc2C(=O)O)NC1=O (configuration not stated)
reported value: inactive

compound: COP(=O)(OC)O/C(C)=C/C(=O)N(C)C
reported value: inactive

compound: Cc1ccc(N=CN(C)C=Nc2ccc(C)cc2C)c(C)c1
reported value: 21.7 µM (active)

compound: Cc1nc(N(C)C)nc(OC(=O)N(C)C)c1C
reported value: inactive

Query compound follows.
Which measured AC50 value corresponds to "N#Cc1c(Cl)cccc1Cl" ?
inactive

###

target: rat CYP2C11, Cyp2c11 (gene 29277) (UniProt P08683); assay: NVS_ADME_rCYP2C11: NovaScreen (NVS) CYP450-related Enzyme Activity (ADME) Assay for rat CYP2C11 (AID 2283118)
Sequence (P08683 whole entry, looked up): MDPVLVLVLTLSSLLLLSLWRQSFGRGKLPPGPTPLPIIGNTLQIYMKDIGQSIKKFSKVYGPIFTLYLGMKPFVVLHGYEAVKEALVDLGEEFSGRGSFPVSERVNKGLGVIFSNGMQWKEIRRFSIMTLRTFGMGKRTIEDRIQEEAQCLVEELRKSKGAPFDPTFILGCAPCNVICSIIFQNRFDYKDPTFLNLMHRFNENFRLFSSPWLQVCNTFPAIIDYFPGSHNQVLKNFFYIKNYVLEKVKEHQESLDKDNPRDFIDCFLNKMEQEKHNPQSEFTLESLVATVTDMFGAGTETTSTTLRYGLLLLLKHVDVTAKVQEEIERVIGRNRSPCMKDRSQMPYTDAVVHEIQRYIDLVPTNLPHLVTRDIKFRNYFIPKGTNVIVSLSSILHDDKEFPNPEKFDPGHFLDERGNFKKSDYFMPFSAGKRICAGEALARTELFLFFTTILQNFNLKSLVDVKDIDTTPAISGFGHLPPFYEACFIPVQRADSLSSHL
Calls of active or inactive are those of the source. The calls were made as follows: active = hit-call score of the fitted dose curve at least 0.9, where 1 is the maximum; inconclusive = response in the unintended direction; inactive = score below 0.9.
result type: AC50

Record excerpt, results attached:
molecule: CCCCC(O)(Cn1cncn1)c1ccc(Cl)cc1Cl (centres undefined)
reported value: 1850 nM (active)
//
molecule: CCN(CC)C(=O)C(C)Oc1cccc2ccccc12 (centres undefined)
reported value: 951 nM (active)
//
molecule: CCOc1cc(C(C)(C)C)ccc1C1COC(c2c(F)cccc2F)=N1 (centres undefined)
reported value: 10000 nM (active)
//
molecule: CO/N=C(/C1=NOCCO1)c1ccccc1Oc1ncnc(Oc2ccccc2Cl)c1F
reported value: 779 nM (active)
//
molecule: CCCCC(C#N)(Cn1cncn1)c1ccc(Cl)cc1 (centres undefined)
reported value: 2390 nM (active)
//
molecule: CCNP(=S)(OC)O/C(C)=C/C(=O)OC(C)C (centres undefined)
reported value: 1240 nM (active)
//
molecule: COP(=S)(OC)SCn1nnc2ccccc2c1=O
reported value: 419 nM (active)
//
molecule: CC(C)(C)C(=O)C(Oc1ccc(Cl)cc1)n1cncn1 (centres undefined)
reported value: 4290 nM (active)

Query molecule follows.
Which measured AC50 value corresponds to CC1(C)CCC(=Cc2ccc(Cl)cc2)C1(O)Cn1cncn1 (centres undefined) ?
384 nM (active)

###

read-out: Interleukin-1 alpha (IL1a), IL1A (gene 3552); assay: BSK_KF3CT_IL1a: BioMAP Diversity Plus: KF3CT Assay for Interleukin-1 alpha (IL1a) Biomarker Activity (AID 2283070); conditions: primary human keratinocytes with fibroblasts; actives raise or lower the signal
The source made the active and inactive calls. The calls were made as follows: active = hit-call score of the fitted dose curve at least 0.9, where 1 is the maximum; inactive = score below 0.9.
API: response.call in active, inactive

molecule: CC1(C)C(C(=O)OC(C#N)c2cccc(Oc3ccccc3)c2)C1(C)C (stereo unspecified)
cat: inactive

Fill in: this test's call for "OC(c1ccc(Cl)cc1)(c1ccc(Cl)cc1)C(Cl)(Cl)Cl" is ___
active

Fill in: this test's call for "CS(=O)(=O)c1cc(C(F)(F)F)ccc1C(=O)c1cnoc1C1CC1" is ___
inactive

###

read-out: Tissue plasminogen activator (tPA), PLAT (gene 5327); assay: BSK_BE3C_tPA: BioMAP Diversity Plus: BE3C Assay for Tissue plasminogen activator (tPA) Biomarker Activity (AID 2283041); details: primary human bronchial epithelial cells; actives raise or lower the signal
The source made the active and inactive calls. The calls were made as follows: active = hit-call score of the fitted dose curve at least 0.9, where 1 is the maximum; inactive = score below 0.9.
API: response.call in active, inactive

The examples below pair each entry with its known result.
compound: CCCCOCN(C(=O)CCl)c1c(CC)cccc1CC
cat: active
--
compound: Cc1c(COC(=O)[C@@H]2[C@H](/C=C(\Cl)C(F)(F)F)C2(C)C)cccc1-c1ccccc1
cat: inactive
--
compound: CC(C)N1C(=O)c2ccccc2NS1(=O)=O
cat: inactive

Fill in: this test's call for CCOc1cc(C(C)(C)C)ccc1C1COC(c2c(F)cccc2F)=N1 (stereo not drawn) is ___
active

Fill in: this test's call for "CCOP(=O)(OCC)Oc1nc(Cl)c(Cl)cc1Cl" is ___
inactive

Fill in: this test's call for "C=C(C)CN(CC)c1c([N+](=O)[O-])cc(C(F)(F)F)cc1[N+](=O)[O-]" is ___
inactive

Fill in: this test's call for CCCCC(C#N)(Cn1cncn1)c1ccc(Cl)cc1 (stereo not drawn) is ___
inactive

Fill in: this test's call for "C=CCOC(=O)C(C)(C)OC(=O)c1cc(-n2c(=O)cc(C(F)(F)F)n(C)c2=O)ccc1Cl" is ___
inactive

Fill in: this test's call for "CSC(=O)c1c(C(F)F)nc(C(F)(F)F)c(C(=O)SC)c1CC(C)C" is ___
inactive

Fill in: this test's call for "COP(=O)(OC)O/C(C)=C/C(=O)N(C)C" is ___
inactive

Fill in: this test's call for "CCNC(=O)NC(=O)C(C#N)=NOC" is ___
inactive

Fill in: this test's call for "CC(C)NC(=O)N1CC(=O)N(c2cc(Cl)cc(Cl)c2)C1=O" is ___
inactive

Fill in: this test's call for "COC(=O)NC(=S)Nc1ccccc1NC(=S)NC(=O)OC" is ___
inactive

Fill in: this test's call for "COP(=S)(OC)Oc1ccc([N+](=O)[O-])c(C)c1" is ___
inactive

Fill in: this test's call for COCC(C)N(C(=O)CCl)c1c(C)csc1C (stereo not drawn) is ___
inactive

Fill in: this test's call for "N#Cc1c[nH]cc1-c1cccc2c1OC(F)(F)O2" is ___
inactive

Fill in: this test's call for CCNP(=S)(OC)O/C(C)=C/C(=O)OC(C)C (stereo not drawn) is ___
inactive

Fill in: this test's call for "CC(C)Oc1cccc(NC(=O)c2ccccc2C(F)(F)F)c1" is ___
inactive

Fill in: this test's call for "CC(C)N1C(=O)N(c2ccccc2)CSC1=NC(C)(C)C" is ___
inactive

Fill in: this test's call for "CCOP(=S)(OCC)Oc1nc(Cl)n(C(C)C)n1" is ___
inactive
